Test system: Human Serum Albumin (HSA) (Homo sapiens)
Construct: purchased Chromtech (Cheshire, UK)
Protocol description: Human serum albumin (HSA) binding, immobilised HSA HPLC column
Type: in vitro ADME
Recorded conditions: logarithm of typical retention time on the HSA column

{"Molecule": "CCCC1O[C@@H]2C[C@H]3[C@@H]4CCC5=CC(=O)C=C[C@]5(C)[C@H]4[C@@H](O)C[C@]3(C)[C@]2(C(=O)CO)O1 (some centres unmarked) [Budesonide]", "logtR": 0.20}
{"Molecule": "COC(=O)C1=C(C)NC(C)=C(C(=O)OCCN(C)Cc2ccccc2)C1c1cccc([N+](=O)[O-])c1 (centres unmarked)", "logtR": 0.43}
{"Molecule": "O=C1CN=C(c2ccccn2)c2cc(Br)ccc2N1", "logtR": 0.06}
{"Molecule": "NC(=O)N1c2ccccc2C=Cc2ccccc21 [Carbamazepine]", "logtR": 0.13}
{"Molecule": "CN1C(C(=O)Nc2ccccn2)=C(O)c2ccccc2S1(=O)=O", "logtR": 0.49}

----------
Test system: Human Serum Albumin (HSA) (Homo sapiens, UniProt P02768)
Construct: purchased Chromtech (Cheshire, UK)
Sequence (P02768 25-609): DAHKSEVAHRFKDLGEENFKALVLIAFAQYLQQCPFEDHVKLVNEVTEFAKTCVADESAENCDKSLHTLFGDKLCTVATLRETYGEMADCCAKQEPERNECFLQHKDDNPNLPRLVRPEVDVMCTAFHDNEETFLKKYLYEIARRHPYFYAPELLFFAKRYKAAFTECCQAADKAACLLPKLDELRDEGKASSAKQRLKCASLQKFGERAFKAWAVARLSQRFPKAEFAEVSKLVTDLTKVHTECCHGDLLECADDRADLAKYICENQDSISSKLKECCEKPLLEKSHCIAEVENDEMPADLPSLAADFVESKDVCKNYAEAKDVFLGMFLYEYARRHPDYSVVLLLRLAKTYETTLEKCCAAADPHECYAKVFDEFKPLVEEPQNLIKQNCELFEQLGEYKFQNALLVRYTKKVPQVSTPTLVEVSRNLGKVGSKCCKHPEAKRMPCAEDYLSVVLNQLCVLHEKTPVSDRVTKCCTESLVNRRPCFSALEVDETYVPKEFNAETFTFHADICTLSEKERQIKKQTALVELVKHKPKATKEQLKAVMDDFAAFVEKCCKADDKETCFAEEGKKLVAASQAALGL
Protocol description: Human serum albumin (HSA) binding, immobilised HSA HPLC column
Assay type: in vitro ADME
Recorded conditions: typical retention time on the HSA column
Labelling: tR reported below 2 becomes MET; at or above becomes NOT MET.

{"Compound": "O=C1CN=C(c2ccccn2)c2cc(Br)ccc2N1", "Label value": "MET"}
{"Compound": "CNC(=C[N+](=O)[O-])NCCSCc1csc(CN(C)C)n1", "Label value": "MET"}
{"Compound": "CN1C(C(=O)Nc2ccccn2)=C(O)c2ccccc2S1(=O)=O", "Label value": "NOT MET"}
{"Compound": "CCCC1O[C@@H]2C[C@H]3[C@@H]4CCC5=CC(=O)C=C[C@]5(C)[C@H]4[C@@H](O)C[C@]3(C)[C@]2(C(=O)CO)O1 (stereo partly drawn) [Budesonide]", "Label value": "MET"}
{"Compound": "COC(=O)C1=C(C)NC(C)=C(C(=O)OCCN(C)Cc2ccccc2)C1c1cccc([N+](=O)[O-])c1 (stereo not drawn)", "Label value": "NOT MET"}
{"Compound": "NC(=O)N1c2ccccc2C=Cc2ccccc21 [Carbamazepine]", "Label value": "MET"}

----------
Test system: Human Serum Albumin (HSA) (Homo sapiens, UniProt P02768)
Construct: purchased Chromtech (Cheshire, UK)
Protocol description: Human serum albumin (HSA) binding, immobilised HSA HPLC column
Type: in vitro ADME
Recorded conditions: HSA column, pH 7.4
# % HSA measured values compiled below
Endpoint name: % HSA measured

{"Compound": "CCCC1O[C@@H]2C[C@H]3[C@@H]4CCC5=CC(=O)C=C[C@]5(C)[C@H]4[C@@H](O)C[C@]3(C)[C@]2(C(=O)CO)O1 (stereo partly drawn) [Budesonide]", "Endpoint name": "% HSA measured", "Endpoint value": "85.6%"}
{"Compound": "CN1C(C(=O)Nc2ccccn2)=C(O)c2ccccc2S1(=O)=O [Piroxicam]", "Endpoint name": "% HSA measured", "Endpoint value": "96.6%"}
{"Compound": "CNC(=C[N+](=O)[O-])NCCSCc1csc(CN(C)C)n1 [Nizatidine]", "Endpoint name": "% HSA measured", "Endpoint value": "24.6%"}
{"Compound": "COC(=O)C1=C(C)NC(C)=C(C(=O)OCCN(C)Cc2ccccc2)C1c1cccc([N+](=O)[O-])c1 (stereo not drawn) [Nicardipine]", "Endpoint name": "% HSA measured", "Endpoint value": "95.0%"}
{"Compound": "NC(=O)N1c2ccccc2C=Cc2ccccc21 [Carbamazepine]", "Endpoint name": "% HSA measured", "Endpoint value": "80.5%"}
{"Compound": "O=C1CN=C(c2ccccn2)c2cc(Br)ccc2N1 [Bromazepam]", "Endpoint name": "% HSA measured", "Endpoint value": "74.7%"}
